Biological target: T1, human GITR-His (human, UniProt Q9Y5U5 26-161)
T1 construct: Bought from Acro biosystems; also called GITR-His (Acro biosystems); antigen GITR-His
T1 sequence: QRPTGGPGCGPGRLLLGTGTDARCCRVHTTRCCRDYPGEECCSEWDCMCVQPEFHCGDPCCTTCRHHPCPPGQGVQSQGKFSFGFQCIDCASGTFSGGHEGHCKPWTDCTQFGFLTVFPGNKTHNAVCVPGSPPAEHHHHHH
Experiment: ForteBio BLI, antibody on AHQ tip, human GITR-His 100 nM in solution, 1:1 model
Procedure: (2) Experimental procedure: 100 μl of SD buffer and antibodies (hcIgG-02, hcIgG-03, hcIgG-04, hcIgG-07, hcIgG-09, hcIgG-10, hcIgG-16 and hcIgG-20, control antibody), GITR-His (Acro biosystems) were added to a 96-well half-volume black polystyrene microplate. […]
Kd values, listed per item
Give just the number in nM; leave the unit off.

# annotated cases, reported Kd shown
binder | reading.unit | readout.number
hcIgG-16 (antibody, V domains shown, also called heavy-chain antibody of Nb-16) VH: QVQLQESGGGSVQAGGSLRLSCAASGYTYNKYSWGWFRQAPGKEREGVAGIDSDGSTSYADSVKGRFTISKDNTKNTLYLQMNSLKPEDTAMYYCAASDWVSAIQALGVLAVRPYEYWGQGTQVTVSS | nM | 9.81
hcIgG-09 (antibody, V domains shown, also called heavy-chain antibody of Nb-09) VH: QVQLQESGGGLVQPGGSLRLSCGASGFTFSSTAMWWFRQAPGKGLEWVSSITSDVSGTYYADSVQGRFTISRDNGKNTVYLQMNSLRSEDTALYYCATSCGFSGGTWSCKYRGQGTQVTVSS | nM | 1.89
hcIgG-03 (antibody, V domains shown, also called heavy-chain antibody of Nb-03) VH: QVQLQESGGGSVQAGGSLRLSCAASGYTYSGYCMGWFRQAPGKEHEGVASIVSGLGRPYYADSVKGRFTISQDNAKNTVYLQMNSLKPEDTAMYYCAAEWATKLCSEIPATEWDYWGQGTQVTVSS | nM | 5.3
hcIgG-07 (antibody, V domains shown, also called heavy-chain antibody of Nb-07) VH: QVQLQESGGGLVQAGGSLKLSCTVSGFAFGSSHMSWVRRAPGKGLEWVSTIHSGGGFGDYANSVQGRFTISRDVAKNTLYLQMNSLKPEDTAIYYCALATDWRKPPGQGTQVTVSS | nM | 4.08

// Kd lookup, key: hcIgG-04 (antibody, V domains shown, also called heavy-chain antibody of Nb-04) VH: QVQLQESGGGSVQAGGSLRLSCTASGFTVDDSGMGWYRQAPGNECELVSTISSDGSTYYADSVKGRFTISQDNAKNTVYLQMNSLKPEDTAVYYCAAPRVGVGWVRPCDYEYNYWGQGTQVTVSS
7.92

// Kd lookup, key: hcIgG-02 (antibody, V domains shown, also called heavy-chain antibody of Nb-02) VH: QVQLQESGGGSVQAGGSLRLSCAASRDTYTRYFMGWFRQTPGKEGEGVAVLLPGGDYTFYADSVKGRFTITQDSAKNTVYLQMNSLKPEDTAMYYCAADVTVGSRWSQASNYNYWGQGTQVTVSS
6.33

// Kd lookup, key: hcIgG-20 (antibody, V domains shown, also called heavy-chain antibody of Nb-20) VH: QVQLQESGGGSVQAGGSLRLSCASSGYSRTSRWMAWFRQAPGKEREGVAAIYTGGSSTLYANSMADRVTISQDNAKNTVYLRMNNLKPEDTAMYYCAADKLAGDFWLVDRWRAWGQGTQVTVSS
1.85

// Kd lookup, key: hcIgG-10 (antibody, V domains shown, also called heavy-chain antibody of Nb-10) VH: QVQLQESGGGLVQPGGSLRLSCAASGFAFGSSHMSWVRRAPGKGLEWVSTIHSGGGFGDYANSVQGRFTISRDVAKNTLYLQMNSLKPEDTAIYYCALATDWRKPPGQGTQVTVSS
3.22
